Overview of recorded viability for various molecules
- PROTOCOL SUMMARY: reducers of endogenous Her2 protein level, primary screen, SKBR3 breast tumor cells, AlphaScreen, ATP viability (AID 461);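 also: percent of carrier control wells set as 100% viability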
- MEASUREMENT CONTEXT: 18-24 h, measured here: SKBR3 viability, ATP luminescence, at 10 µM

*Q* Provide measured viability value, entry: CCCC(=O)Nc1ccccc1NC(=O)CN(C)S(=O)(=O)c1ccc(C)cc1
*A* 97%

*Q* In one line, give reported viability of the entry CCN1CCN(C(=O)c2cc3c(=O)n(C)c4ccccc4c3n2C)CC1 .
*A* 110%

*Q* Identify the reported viability for the following entry. CC1CCC(NC(=O)C2CCN(c3cnccn3)CC2)CC1 (stereo not given)
*A* 96%

*Q* Look up and state reported viability for COCc1nnc(NC(=O)c2ccc(NC(C)=O)cc2)s1
*A* 100%

*Q* Consider the molecule Cc1ccccc1Cn1c(=O)c2c(nc3n2CCCN3Cc2ccccc2)n(C)c1=O and give its recorded viability.
*A* 89%
